assay: Cytotoxicity in Hep-2 cells; conditions: human
OBSERVED PROPERTY: CC50

Ask | Query: CC50; subject: O=C(O)C[C@H](NC(=O)CP(=O)(O)O)C(=O)O [PALA]
Reply | > 320 µg/mL

----------
test: in vitro; details: uninfected vero cells
OBSERVED PROPERTY: CC50

Ask | Query: CC50; subject: O=C(O)C[C@H](NC(=O)CP(=O)(O)O)C(=O)O [PALA]
Reply | > 320 µg/mL

----------
test: in vitro; details: vero cells
OBSERVED PROPERTY: CC50

Ask | Query: CC50; subject: O=C(O)C[C@H](NC(=O)CP(=O)(O)O)C(=O)O [PALA]
Reply | > 320 µg/mL
